Data provenance: ChEMBL document CHEMBL5724914

Conditions: human gut metagenome, 24 h, 2 µM; further: call rule not given here
READOUT TYPE: Bacterial Biotransformation

// known answers, use as guide
CNNCc1ccc(C(=O)NC(C)C)cc1	Compound metabolized
Nc1nc(NC2CC2)c2ncn([C@H]3C=C[C@@H](CO)C3)c2n1.Nc1nc(NC2CC2)c2ncn([C@H]3C=C[C@@H](CO)C3)c2n1.O=S(=O)(O)O [ABACAVIR SULFATE]	Compound metabolized
CCc1cccc2c3c([nH]c12)C(CC)(CC(=O)O)OCC3 (stereo unspecified)	Compound metabolized
CN(C)C(=O)Oc1cc(OC(=O)N(C)C)cc(C(O)CNC(C)(C)C)c1 (stereo unspecified)	Compound metabolized
CN(C)CCOC(C)(c1ccccc1)c1ccccn1.O=C(O)CCC(=O)O (stereo unspecified) [DOXYLAMINE SUCCINATE]	Compound NOT metabolized
c1ccc2[nH]c(-c3cscn3)nc2c1	Compound NOT metabolized
COc1ccc([C@@H]2Sc3ccccc3N(CCN(C)C)C(=O)[C@@H]2OC(C)=O)cc1	Compound metabolized
CCN(CC)CCNC(=O)c1ccc(NC(C)=O)cc1 [ACECAINIDE]	Compound metabolized

Exercise: In one line, give reported Bacterial Biotransformation of the entry O=C1C(CC[S+]([O-])c2ccccc2)C(=O)N(c2ccccc2)N1c1ccccc1 (stereo unspecified) .
Key: Compound metabolized

Exercise: Hello, please tell me recorded Bacterial Biotransformation for this one: "OCCN(CCO)c1nc(N2CCCCC2)c2nc(N(CCO)CCO)nc(N3CCCCC3)c2n1"
Key: Compound metabolized
